Would you kindly list RLU for each of these binders?
target: T1, apical domain of cynomolgus CD71 (cynomolgus, UniProt A0A2K5X958 189-383); test: primary ELISA; note: test concentration or dose not given here
T1 construct: domain: apical domain; also called Cyno apical domain
T1 sequence (A0A2K5X958 entry or part of it): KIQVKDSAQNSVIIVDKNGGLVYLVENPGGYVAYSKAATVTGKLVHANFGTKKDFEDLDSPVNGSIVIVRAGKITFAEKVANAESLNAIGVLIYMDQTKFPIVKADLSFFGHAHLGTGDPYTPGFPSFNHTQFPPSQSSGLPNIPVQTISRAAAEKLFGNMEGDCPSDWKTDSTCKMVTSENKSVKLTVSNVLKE
Answers are plain numbers, in RLU.

>  <binder>
CD71-binding FN3 domain of SEQ ID NO: 120 (designed binder) MSLPAPKNLVVSRVTEDSARLSWTAPDAAFDSFEIAYQELSLWGEAIVLTVPGSERSYDLTGLKPGTEYWVQIGGVKGGEWSAPLSAIFTT

>  <endpoint-unit>
RLU

>  <RLU>
5.13e+06

$$$$

Now for the binder whose RLU we want.
Can you look up the measured RLU of CD71-binding FN3 domain of SEQ ID NO: 200 (designed binder) MSLPAPKNLVVSRVTEDSARLSWTAPDAAFDSFEIGYFENLYLGEAIVLTVPGSERSYDLTGLKPGTEYWVQIGGVKGSNWSAPLSAIFTT for me?
4.72e+06
